pIC50: −log10 of the molar value.
UniProt:P24666 pIC50, compiled from various sources.

> print(dat)
                                   compound  reported.endpoint  observed.value
1  Nc1ncn(Cc2c(Cl)cncc2Cl)c2nc(C3C4CC5CC(C4)CC3C5)nc1-2 (centres unmarked)              pIC50          > 6.00
2  Clc1ccc(CNc2ncn(Cc3c(Cl)cccc3Cl)c3ncnc2-3)cc1              pIC50    4.70 to 6.00
3  Nc1ncn(Cc2c(Cl)cccc2Cl)c2nc(CCc3ccccc3)nc1-2              pIC50          ≥ 6.00
4  CNc1cc(-c2ccc3c(c2)cc(C(N)=O)n3C)nc2ccncc12              pIC50    4.70 to 6.00

Query: Please look up its pIC50: CN(C)CCNC(=O)/C=C/c1ccc(-c2cc(NCCCN3CCCCC3)c3cnccc3n2)cc1
Response: ≥ 6.00

* * *

Literature compilation of IC50 measurements on UniProtKB P24666.

> print(dat)
                                   molecule  observed.value
1  COC(=O)c1ccc(Nc2ncn(Cc3c(Cl)cccc3Cl)c3ncnc2-3)cc1      1 to 20 µM
2  CN1CCC(NC(=O)/C=C/c2ccc(-c3cc(NCCCN4CCCCC4)c4cnccc4n3)s2)CC1      1 to 20 µM
3    Nc1ncn(Cc2sccc2Cl)c2nc(-c3ccccc3)nc1-2          < 1 µM
4  O=C(NCCc1ccncc1)c1nc2cc(-c3cc(NCCCN4CCCCC4)c4cnccc4n3)ccc2[nH]1          ≤ 1 µM
5  Nc1ncn(Cc2c(Br)cncc2Br)c2nc(-c3ccccc3)nc1-2          < 1 µM
6          Nc1ncn(Cc2c(Br)cncc2Br)c2ncnc1-2          ≤ 1 µM
7  Nc1ncn(Cc2c(Cl)cccc2Cl)c2nc(C(F)(F)C(F)(F)F)nc1-2         ≥ 20 µM
8  Oc1ccccc1Nc1ncn(Cc2c(Cl)cccc2Cl)c2ncnc1-2      1 to 20 µM

Query: Give its IC50 value. Item: CCN(CC)C(=O)/C=C/c1ccc(-c2cc(NCCCN3CCCCC3)c3cnccc3n2)s1
Response: ≥ 20 µM

Query: // returns reported IC50 for input COC(=O)c1ccc(-c2cc(NCCCN3CCCCC3)c3cnccc3n2)c(C(N)=O)c1
Response: 1 to 20 µM

Query: Report IC50 for Nc1ncn(Cc2c(Cl)cccc2Br)c2ncnc1-2 please.
Response: ≤ 1 µM

Query: // IC50 lookup, key: OCCNc1ncn(Cc2c(Cl)cccc2Cl)c2ncnc1-2
Response: 1 to 20 µM

Query: Give the measured IC50 of CN1CCC(c2nc3c(N)ncn(Cc4c(Cl)cccc4Cl)c-3n2)CC1 .
Response: ≤ 1 µM

Query: I'd like to know its IC50. The molecule in question is N#Cc1cccc(-c2nc3c(N)ncn(Cc4c(Cl)cccc4Cl)c-3n2)c1
Response: ≤ 1 µM

Query: Quick one: IC50 of CN1CCC(NC(=O)c2ccc(-c3cc(NC4CCN(C)C4)c4cnccc4n3)cc2)CC1 (stereo not shown) ?
Response: 1 to 20 µM

Query: Which IC50 is reported for this molecule? Nc1ncn(Cc2c(Cl)cccc2Cl)c2nc(C3C4CC5CC(C4)CC3C5)nc1-2 (stereo not shown)
Response: ≤ 1 µM

Query: Entry Cc1ccccc1-c1nc2c(N)ncn(Cc3c(Cl)nc(N)nc3Cl)c-2n1 : reported IC50 = ?
Response: < 1 µM

Query: Sample Cc1ccc(Nc2ncn(Cc3c(Cl)cccc3Cl)c3ncnc2-3)cc1 — what was its IC50?
Response: 1 to 20 µM

Query: Give the measured IC50 of Fc1cccc(F)c1Cn1cnc(NCc2ccco2)c2ncnc1-2 .
Response: 1 to 20 µM

Query: IC50; subject: CCCc1ccc(Nc2ncn(Cc3c(Cl)cccc3Cl)c3ncnc2-3)cc1
Response: 1 to 20 µM

Query: Using the record for Nc1ncn(Cc2c(F)ccc(F)c2F)c2ncnc1-2 , report its IC50.
Response: 1 to 20 µM

Query: What does the record list as IC50 for Cn1cc(-c2nc3c(N)ncn(Cc4c(Cl)cccc4Cl)c-3n2)cn1 ?
Response: ≤ 1 µM

* * *

// compounds with pIC50 on human LMPTP-A (Homo sapiens), multi-source literature
Sequence (P24666 whole entry): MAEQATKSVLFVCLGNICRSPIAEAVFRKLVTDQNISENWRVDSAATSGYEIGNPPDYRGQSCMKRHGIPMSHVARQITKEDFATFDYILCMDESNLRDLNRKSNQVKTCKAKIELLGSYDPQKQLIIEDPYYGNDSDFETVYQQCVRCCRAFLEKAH
pIC50: −log10 of the molar value.

> print(dat)
                                   compound  observed.value
1  Oc1ccc(Nc2ncn(Cc3c(Cl)cccc3Cl)c3ncnc2-3)cc1    4.70 to 6.00

Query: May I ask what pIC50 has been recorded for Nc1ncn(Cc2c(Cl)cccc2Cl)c2nc(-c3ccoc3)nc1-2 ?
Response: ≥ 6.00

Query: Data request, read-out pIC50, for CCN(CC)C(=O)c1ccc(-c2cc(NCCN3CCNCC3)c3cnccc3n2)cc1
Response: 4.70 to 6.00

Query: Which measured pIC50 value corresponds to CN(C)CCNC(=O)c1cc2cc(-c3cc(NCCCN4CCCCC4)c4cnccc4n3)ccc2n1C ?
Response: ≥ 6.00

Query: What does the data say about its pIC50? Entry: Nc1ncn(Cc2ccc(C(F)(F)F)cc2)c2ncnc1-2
Response: 4.70 to 6.00

Query: If you can, please state the reported pIC50 value of Cc1cc(-c2nc3c(N)ncn(Cc4c(Cl)cncc4Cl)c-3n2)n(C)n1 .
Response: > 6.00

Query: For the compound O=C(/C=C/c1ccc(-c2cc(NCCCN3CCCCC3)c3cnccc3n2)cc1)NCCCN1CCCCC1 , what pIC50 is on record?
Response: ≥ 6.00

* * *

# literature pull: human LMPTP-A (Homo sapiens) pIC50
pIC50: −log10 of the molar value.

Previously resolved entries follow.
> print(dat)
                                   compound  observed.value
1  Clc1cccc(Nc2ncn(Cc3c(Cl)cccc3Cl)c3ncnc2-3)c1    4.70 to 6.00
2  CN1CCC(NC(=O)c2ccc(-c3cc(NC4CCNC4)c4cnccc4n3)cc2)CC1 (stereo not shown)    4.70 to 6.00
3  O=C(COCc1ccc(-c2cc(NCCCN3CCCCC3)c3cnccc3n2)cc1)NCCCN1CCCCC1    4.70 to 6.00

Query: Field request: pIC50 | item: Cc1ccccc1-c1nc2c(N)nc(C)n(Cc3c(Br)cnn3C)c-2n1
Response: 4.70 to 6.00

* * *

pIC50: −log10 of the molar value.
Listing of pIC50 toward human LMPTP-A (Homo sapiens), each taken from a published source.

Some solved entries appear below for comparison.
> print(dat)
                               given.smiles  observed.value
1  CS(=O)(=O)Nc1ncn(Cc2c(Cl)cccc2Cl)c2ncnc1-2          ≤ 4.70
2  Cc1cccc(C)c1Nc1ncn(Cc2c(Cl)cccc2Cl)c2ncnc1-2    4.70 to 6.00
3  O=C(NC1CCNCC1)c1ccc(-c2cc(NCCCN3CCCCC3)c3cnccc3n2)cc1          ≥ 6.00
4  CN1CCC(N/C(=N\O)c2ccc(-c3cc(NCCCN4CCCCC4)c4cncc(Cl)c4n3)cc2)CC1          ≤ 4.70
5  Cn1cnc2ccc(-c3nc4c(N)ncn(Cc5c(Cl)cncc5Cl)c-4n3)cc21          > 6.00

Query: Any idea what pIC50 came out for Cc1nc2c(N)ncn(Cc3c(Cl)cccc3Cl)c-2n1 on human LMPTP-A (Homo sapiens)?
Response: ≥ 6.00

Query: Which pIC50 is reported with human LMPTP-A (Homo sapiens) for this entry: Nc1ncn(Cc2c(Cl)cncc2Cl)c2nc(-c3cc(F)ccc3F)nc1-2 ?
Response: > 6.00

* * *

Below are pIC50 values for human LMPTP-A (Homo sapiens, UniProt P24666) collected from several publications.
pIC50: −log10 of the molar value.

Before answering, review these 4 worked examples.
> print(dat)
                               given.smiles  reported.endpoint  observed.value
1  CN1CCC(NC(=O)c2nc3cc(-c4cc(NCCCN5CCCCC5)c5cnccc5n4)cnc3[nH]2)CC1              pIC50          ≥ 6.00
2  CN1CCC(NC(=O)CCc2ccc(-c3cc(NC4CCN(C)CC4)c4cnccc4n3)cc2)CC1              pIC50          ≥ 6.00
3  Cc1ccccc1-c1nc2c(N)ncn(Cc3ccncc3Cl)c-2n1              pIC50          > 6.00
4             Nc1ncn(Cc2ccc(Cl)s2)c2ncnc1-2              pIC50    4.70 to 6.00

Query: Report pIC50 for CCN(CC)Cc1nc2c(N)ncn(Cc3c(Cl)cncc3Cl)c-2n1 please.
Response: 4.70 to 6.00

Query: // query pIC50 value for entry CCCCNc1ncn(Cc2c(Cl)cccc2Cl)c2ncnc1-2
Response: 4.70 to 6.00
